Tested on: NCI-H2122
experimental-details: Pemetrexed cytotoxicity test upon suppression of expression of MYT1
Format: cell-based
experimental-conditions: Homo sapiens, read-out: IC50 of pemetrexed, NT; NCI-H2122 (RB1 wild-type); negative control siRNA 10 nM; 7 days
Description: Thereafter, the plates were shaken to transfect each siRNA at a final concentration of 10 nM. The −Log 2 value of fold change of IC50 and the maximum value of Bliss score, which are indexes of the combination effect, were calculated by comparing with the actually obtained cell survival curve, and described in Table 6 (see Non Patent Literature 9).

{"columns": ["compound", "IC50"],
 "data": [
  ["Nc1nc2[nH]cc(CCc3ccc(C(=O)N[C@@H](CCC(=O)O)C(=O)O)cc3)c2c(=O)[nH]1 [pemetrexed]", "159 nM"]
]}
